Target: GAL4 DBD (1-147)-CfEcR(DEF)/VP16AD-βRXREF-LmUSPEF (Choristoneura fumiferana, UniProt O77240)
Sequence (O77240 191-513): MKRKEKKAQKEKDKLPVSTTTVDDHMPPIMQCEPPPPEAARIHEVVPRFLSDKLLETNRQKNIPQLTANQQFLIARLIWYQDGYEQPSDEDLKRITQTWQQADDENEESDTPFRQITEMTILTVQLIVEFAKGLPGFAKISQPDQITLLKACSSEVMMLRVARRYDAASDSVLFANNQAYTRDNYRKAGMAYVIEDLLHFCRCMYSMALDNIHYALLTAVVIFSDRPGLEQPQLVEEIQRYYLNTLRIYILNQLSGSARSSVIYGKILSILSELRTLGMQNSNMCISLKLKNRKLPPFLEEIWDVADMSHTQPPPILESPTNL
Sequence (P28702 296-455 partner limits assumed): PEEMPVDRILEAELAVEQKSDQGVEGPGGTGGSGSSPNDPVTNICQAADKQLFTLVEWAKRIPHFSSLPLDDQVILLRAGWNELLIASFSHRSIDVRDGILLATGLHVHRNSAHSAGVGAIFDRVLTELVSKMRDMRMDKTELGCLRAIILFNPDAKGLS
Assay: 27-63 assay: luciferase reporter gene expression in stable CHO cell clone 27-63
Settings: maximum fold induction at any concentration relative to that of GS-E ligand

| molecule | 27-63 Rel Max FI |
| --- | --- |
| COc1ccccc1C(=O)C1(NC(=O)c2cccc(OC)c2C)CCCCC1 [Example 45] | 0.71 |
| Cc1cc(C)cc(C(=O)C2(NC(=O)c3ccc4c(c3C)OCO4)CCCCC2)c1 [Example 81] | 0.91 |
| COc1ccccc1C(=O)C1(NC(=O)c2cccc(OC)c2C)CCCC1 [Example 40] | 0.67 |
| COc1cccc(C(=O)C2(NC(=O)c3cccc(OC)c3C)CCCCC2)c1 [Example 4] | 1.06 |
| COc1cccc(C(=O)NC2(C(=O)c3ccc(F)c(C)c3)CCCC2)c1C [Example 17] | 0.40 |
| O=C(NC1(C(=O)c2ccccc2)CCCC1)c1ccccc1 [Example 139] | 0.00 |
| CCc1ccc(C(=O)NC2(C(=O)c3cc(C)cc(C)c3)CCCC2)cc1 [Example 138] | 0.75 |
| CCc1c(C(=O)NC2(C(=O)c3ccccc3)CCCC2)ccc2c1OCCO2 [Example 22] | 0.60 |
| CCCCC(=O)C1(NC(=O)c2cccc(OC)c2C)CCCCC1 [Example 120] | 0.65 |

---

Target: Bombyx mori EcR (VP16 fusion, switch construct CVBE) with 6XEcRE LacZ reporter (Bombyx mori, UniProt P49881)
Construct: expressed in transfected cells; host or cells: Human 293 kidney (HEK-293) cells, retrovirally infected, clone Z3
Sequence (P49881 86-606 limits assumed): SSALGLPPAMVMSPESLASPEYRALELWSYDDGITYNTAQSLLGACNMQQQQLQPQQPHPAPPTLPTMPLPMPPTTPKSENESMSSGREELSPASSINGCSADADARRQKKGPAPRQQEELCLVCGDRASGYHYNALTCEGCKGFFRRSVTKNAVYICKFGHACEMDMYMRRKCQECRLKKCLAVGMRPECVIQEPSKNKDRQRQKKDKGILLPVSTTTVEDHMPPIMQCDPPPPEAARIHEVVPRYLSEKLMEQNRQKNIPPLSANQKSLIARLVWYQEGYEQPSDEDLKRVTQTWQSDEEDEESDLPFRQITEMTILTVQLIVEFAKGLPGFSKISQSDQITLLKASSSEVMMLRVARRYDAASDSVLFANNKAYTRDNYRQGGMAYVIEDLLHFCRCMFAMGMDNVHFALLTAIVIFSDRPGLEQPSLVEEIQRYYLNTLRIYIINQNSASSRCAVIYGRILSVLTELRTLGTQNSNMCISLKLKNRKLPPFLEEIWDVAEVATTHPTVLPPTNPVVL
Sequence (P19793 whole entry partner, the tested form may be a part): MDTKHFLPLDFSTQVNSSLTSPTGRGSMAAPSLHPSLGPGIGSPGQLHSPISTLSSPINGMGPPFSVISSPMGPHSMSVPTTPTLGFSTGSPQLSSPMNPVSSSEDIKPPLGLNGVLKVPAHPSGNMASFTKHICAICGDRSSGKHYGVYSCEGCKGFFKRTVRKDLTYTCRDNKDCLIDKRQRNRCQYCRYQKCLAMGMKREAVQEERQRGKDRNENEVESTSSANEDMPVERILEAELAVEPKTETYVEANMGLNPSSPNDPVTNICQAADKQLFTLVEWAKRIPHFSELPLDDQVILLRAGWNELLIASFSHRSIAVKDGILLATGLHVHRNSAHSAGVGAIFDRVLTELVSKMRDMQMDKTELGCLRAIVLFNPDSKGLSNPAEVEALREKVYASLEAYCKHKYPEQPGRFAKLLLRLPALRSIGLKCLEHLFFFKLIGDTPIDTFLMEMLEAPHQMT
Experiment: Z3 assay: β-galactosidase (LacZ) reporter gene fold induction in stably transformed human 293 kidney cells (clone Z3)
Assay type: cell-based
Settings: maximum fold induction at any concentration relative to that of GS-E ligand

| compound | Z3 Rel Max FI |
| --- | --- |
| COc1cccc(C(=O)NC(C)(C(=O)c2cccc(C)c2)C(C)C)c1C (centres unmarked) [Example 31] | 0.47 |
| COc1cccc(C(=O)NC(C)(CC(C)C)C(=O)c2cccc(C)c2)c1C (centres unmarked) [Example 52] | 0.24 |
| COc1cccc(C(=O)NC2(C(=O)c3ccccc3C)CCCCC2)c1C [Example 44] | 0.23 |
| COc1cccc(C(=O)NC2(C(=O)c3ccc(F)cc3)CCCC2)c1C [Example 42] | 0.14 |
| COc1cccc(C(=O)C(C)(NC(=O)c2cccc(OC)c2C)C(C)C)c1 (centres unmarked) [Example 32] | 0.12 |

---

Biological target: GAL4 DBD (1-147)-CfEcR(DEF)/VP16AD-βRXREF-LmUSPEF (Choristoneura fumiferana, UniProt O77240)
Experiment: 27-63 assay: luciferase reporter gene expression in stable CHO cell clone 27-63
Details: maximum fold induction at any concentration relative to that of GS-E ligand
Please note: condition met applies when 27-63 Rel Max FI is 0.09 or greater, and condition not met applies otherwise.

| compound | label.value |
| --- | --- |
| COc1cccc(C(=O)NC(C)(C(=O)c2cc(C)cc(C)c2)C(C)C)c1C (stereo not drawn) | condition met |
| Cc1cc(C)cc(C(=O)C2(NC(=O)c3ccc4c(c3C)OCO4)CCCC2)c1 | condition met |
| Cc1cc(C)cc(C(=O)C2(NC(=O)c3ccc4c(c3)OCCO4)CCCC2)c1 | condition met |
| CCC(CC)(NC(=O)c1cccc(OC)c1C)C(=O)c1ccccc1OC | condition met |
| CCC(CC)(NC(=O)c1cccc(OC)c1C)C(=O)c1cccc(OC)c1 | condition not met |
| COc1cccc(C(=O)NC(C)(C(=O)c2ccc(C)cc2)C(C)C)c1C (stereo not drawn) | condition not met |
| CCc1c(OC)cccc1C(=O)NC1(C(=O)c2cc(C)cc(C)c2)CCCCC1 | condition met |
| CCC(CC)(NC(=O)c1cccc(OC)c1C)C(=O)c1cccc(C)c1 | condition met |
| O=C(NC1(C(=O)c2ccccc2)CCCC1)c1ccc2c(c1)OCO2 | condition not met |
| COc1cccc(C(=O)NC(C)(C(=O)c2ccccc2)C(C)C)c1C (stereo not drawn) | condition not met |
| COc1cccc(C(=O)NC2(C(=O)c3cc(C)cc(C)c3)CCSCC2)c1C | condition met |
| COc1cccc(C(=O)C(C)(CC(C)C)NC(=O)c2cccc(OC)c2C)c1 (stereo not drawn) | condition not met |
| COc1cccc(C(=O)NC2(C(=O)c3ccc(C)cc3)CCCC2)c1C | condition met |
| Cc1cc(C)cc(C(=O)C2(NC(=O)c3ccc4c(c3)COCO4)CCCC2)c1 | condition met |
| COc1cccc(C(=O)NC(C)(C(=O)c2cccc(C)c2)C(C)C)c1C (stereo not drawn) | condition met |
| COc1cccc(C(=O)NC2(C(=O)c3cc(C)cc(C)c3)CCC3(CC2)OCCO3)c1C | condition not met |
| COc1ccccc1C(=O)C1(NC(=O)c2cccc(OC)c2C)CCCCCC1 | condition met |
